- Test system: vaccinia virus (Elstree strain)
- Assay type: cell-based
- cond: HeLa cells; VR >1.0 marked, 0.5 to 0.9 moderate, <0.5 weak or no activity
What Antiviral (VR) VV was measured for each of the following?

query: What value of Antiviral (VR) VV has been recorded for this entry: Nc1ncnc2c(N[C@H]3O[C@H](CO)[C@@H](O)[C@H]3O)ncnc12 [Compound 11]
result: 1.0 VR

query: // repeat for COc1ncnc2c(N[C@H]3O[C@H](CO)[C@@H](O)[C@H]3O)ncnc12 [Compound 17] and report
result: 0.9 VR

query: // repeat for Nc1ncnc2c(N[C@@H]3O[C@H](CO)[C@@H](O)[C@H]3O)ncnc12 [Compound 8, reference compound] and report
result: 1.3 VR

query: // repeat for COc1ncnc2c(N[C@@H]3O[C@H](CO)[C@@H](O)[C@H]3O)ncnc12 [Compound 14] and report
result: 1.0 VR

====

- method: physchem
- cond: water
What solubility was measured for each of the following?
Response body: numeric value in mg/mL, unit text excluded.

query: What value of solubility has been recorded for this entry: Nc1ncnc2c(N[C@H]3O[C@H](CO)[C@@H](O)[C@H]3O)ncnc12
result: 2.2

query: // repeat for Nc1ncnc2c(N[C@@H]3O[C@H](CO)[C@@H](O)[C@H]3O)ncnc12 [Compound 8, reference compound] and report
result: 17.3

query: // repeat for COc1ncnc2c(N[C@H]3O[C@H](CO)[C@@H](O)[C@H]3O)ncnc12 and report
result: 3.7

query: // repeat for COc1ncnc2c(N[C@@H]3O[C@H](CO)[C@@H](O)[C@H]3O)ncnc12 and report
result: 17.3

====

- cond: delivered at 0.01 ml/g mouse weight
recorded metric: Maximum watersoluble dosage (mg/kg/inj.)
Response body: numeric value in mg/kg/inj., unit text excluded.

query: What value of Maximum watersoluble dosage has been recorded for this entry: Nc1ncnc2c(N[C@@H]3O[C@H](CO)[C@@H](O)[C@H]3O)ncnc12 [Compound 8, reference compound]
result: 173

query: // repeat for Nc1ncnc2c(N[C@H]3O[C@H](CO)[C@@H](O)[C@H]3O)ncnc12 and report
result: 22

query: // repeat for COc1ncnc2c(N[C@@H]3O[C@H](CO)[C@@H](O)[C@H]3O)ncnc12 and report
result: 173

query: // repeat for COc1ncnc2c(N[C@H]3O[C@H](CO)[C@@H](O)[C@H]3O)ncnc12 and report
result: 37

====

- method: in vitro
- Assay type: biochemical
- cond: adenosine deaminase, pH 7.5; 18 h, same conditions as for ARPP; read-out: deaminated by adenosine deaminase in 18 h
recorded metric: metabolised at 18 h, 1000 µM

query: What value of metabolised at 18 h, 1000 µM has been recorded for this entry: COc1ncnc2c(N[C@@H]3O[C@H](CO)[C@@H](O)[C@H]3O)ncnc12 [Compound 14]
result: < 10%

====

What Antiviral (VR) HSV2 was measured for each of the following?
- Test system: herpes simplex virus type 2 (MS strain)
- method: In vitro antiviral activity, herpes simplex virus type 2 (virus rating)
- Type: cell-based
- cond: Vero cells; VR >1.0 marked, 0.5 to 0.9 moderate, <0.5 weak or no activity
Response body: numeric value in VR, unit text excluded.

query: What value of Antiviral (VR) HSV2 has been recorded for this entry: COc1ncnc2c(N[C@H]3O[C@H](CO)[C@@H](O)[C@H]3O)ncnc12
result: 0.1

query: // repeat for Nc1ncnc2c(N[C@H]3O[C@H](CO)[C@@H](O)[C@H]3O)ncnc12 and report
result: 0.2

query: // repeat for Nc1ncnc2c(N[C@@H]3O[C@H](CO)[C@@H](O)[C@H]3O)ncnc12 [Compound 8, reference compound] and report
result: 0.8

query: // repeat for COc1ncnc2c(N[C@@H]3O[C@H](CO)[C@@H](O)[C@H]3O)ncnc12 and report
result: 0.2
